B1: TPR t1 (parent)
chain: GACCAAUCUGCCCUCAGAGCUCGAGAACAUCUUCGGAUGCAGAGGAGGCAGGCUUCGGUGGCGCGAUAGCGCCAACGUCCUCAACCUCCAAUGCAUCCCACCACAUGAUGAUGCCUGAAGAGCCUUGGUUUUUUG

Variants of: B1
Assay: polymerase ribozyme fitness, log enrichment relative to wild type (log ratio); higher = more active; in vitro selection for triplet polymerase activity
Entries annotated with measured polymerase ribozyme fitness (log ratio)
VALUE_TYPE: polymerase ribozyme fitness (log ratio)

[[record]]
seq_text = "GACCAAUCUGCCCUCAGAGCUCGAGAACAUCUUCGGAUGGAGAGGAGGCAGACUUCGGUGGUGCGAUAGCGCCAACGUCCUCAACCUCCAAUGCAUCCCACCACAUGAUGAUGCCUGAAGAGCCUUGCUUUUUUG [C40G G52A C62U G128C]"
meas_value = -3.34

[[record]]
seq_text = "GACCAAUCUUCCCUCAGAGCUCGAGAACAUCUUCGGAUGCAGAGGAUGCAGGCUUCGGUGGCGCGAUAGCGCCAACGUCCUCAACCUCCAAUGCAUCCCACCACAUGAUUAUGCCUUAAGAACCUUGGUUUUUUG [G10U G47U G110U G117U G122A]"
meas_value = -4.52

[[record]]
seq_text = "GACCAAUCUGCCCUCAGAGCUCGAGAACAUCUUCGGAUGCAGAGGAGGCAGGCUUCGGUGGCGCGAUAGCGCCAACGUCCUCAACCUCCAAUGCAUCCCACCACAUGAUCAUGCCUGAAGCGCCUUGGUAUUUUG [G110C A121C U130A]"
meas_value = -3.51

[[record]]
seq_text = "GACCAAUCUGCCCUCAGAGCUCGAGAACAUCUUCGGAUGCAGAGUAGGCAGGCUUAGGUGGCGCGAUAGCGCGAACGUCCUCAACCUCCAAUGCAUCCCACCACAUGAUGAUGCCUGAAGAGCCUUGGUUUUUUG [G45U C56A C73G]"
meas_value = -2.79

[[record]]
seq_text = "GACCAAUCUGUCCUCAUAGCUCGAGAACAUCUUCGGAUGCAGAGGAGACAGGCUUCGGUGGCGCGAUAGCGCCAACGUCCUCAACCUCCAAUGCAUCCCACCACAUGAUGAUGCCUGAAGAGCGUUGGUUUUUUG [C11U G17U G48A C124G]"
meas_value = -1.88

[[record]]
seq_text = "GACCAAUCUGCCCUCAGAGCUCGAGAACAUCUUCGGAUGCAGAGGAGGCAGGCUUCGGUGGCCCGAUAGCGCCAACGUCCUCAACCUCCAAUGCAUCCCACCACAUGAUGUUGCCUGAAGAGCCUUGGUUUUUUG [G63C A111U]"
meas_value = -3.26

[[record]]
seq_text = "GACCAAUCUGCCUUCAGAGCUCGAGAACAUCUUCGGAUGCAGAGGAGGCAGGCUGCGGUGGCGCGAUAGCGCCAACGUCCUCAACCUCCAGUGCAUCCCACCACAUGAUGAUGCCUGAAGAGCCUUGGUUUUUUG [C13U U55G A91G]"
meas_value = -0.322

[[record]]
seq_text = "GACCAAUCUGCCCUCAGAGCUCGAGAACAUCUUCUGAUGCAGAGGAGGCAGGCUUCGGUGGCGCGAUAGCGCCAACGUCCUUAACCUCCAAUGCAUCCCACCACAUGAUGAUGCAUGAAGAGCCUUGGUUUUUUG [G35U C82U C115A]"
meas_value = -6.43

[[record]]
seq_text = "GACCAAUCUGCGCUCAGAGCUCGAGAACAUCUUCGGAUGCAGAGGAGGCAGGCUUCGGUGGCGCGAUAGCGACAACGUCCUCAACCUCCAAUGCAUCCCACCACAUGAUGAUGCCUGAAGAGCCUUGGUUUUUUG [C12G C72A]"
meas_value = -0.123

[[record]]
seq_text = "GACCAAUCUGCCCUCAGAGCUCGAGAACAUCUUCGGAUGCAGAGGAGGCAGGCUUCGGUGGCGCGAUAGCGCCAACGUCCUCAACCUCCAAAGCAUCCCACCACACGAUGAUGACUGAAGAGCCUUGGUUUUUUG [U92A U106C C114A]"
meas_value = -4.09

[[record]]
seq_text = "GACCAAUCUGCCCUCAGAGCUCGAGAACAUCUUCGGAUGCAGAGGAGGAAGCCUUCGGUAGCGCGAUAGCGCCAACGUCCUCAACCUCCAAUGCAUCCCACCACAUGAUGAGGCCUGAAGAGCCUUCGUUUUUUG [C49A G52C G60A U112G G127C]"
meas_value = -2.8

[[record]]
seq_text = "GACAAAUCUGCCCUCAGAGCUCGAGAACAUCUUCGGAUGCAGAGGUGGCAGGCUUCGGUGGCGCGAUAGCGCCAACGUCCUCAACCUUCAAAGCAUCCCACCACAUGAUGAUGCCCGAAGAGCCUUGGUUUUUUG [C4A A46U C88U U92A U116C]"
meas_value = -6.04

[[record]]
seq_text = "GACCAAUCUGCCUUCAGAGCUCGAGAACAUCUUCGGAUGCAGAGGAGGCAGGCUUCGGUGGCGCGAUAGCGCCAACGUCCUCAACCUCCAAUGCAUCCCACCACAUGGUGAUGCCUGAAAAGCCUUGGUUUUUUG [C13U A108G G120A]"
meas_value = -1.12

[[record]]
seq_text = "GACCAAUCCGCCCUCAGAGCUCGAGAACAUCUUCGGAUGCUGAGGAGGCAGGCUUCGGUGGCGCGAUAGAGCCAACGUCCUCAACCUCCAAUGCAUCCCACCACAUGAUGAUGCCUGAAGAGCCAUGGUUUUUUG [U9C A41U C70A U125A]"
meas_value = -4.15

[[record]]
seq_text = "GACCAAUCUGCCCUCAGAGCUCGAGAACAUCUUCGGAUACAGAGGAGGCAGGCUUCGGUGGCGCGAUAGCGCCAACGUCCUCAACCUCCAAUGCAUCCCACCACAUGAUGAUGCCUGAAGAGCCUUGGCUUUUUG [G39A U129C]"
meas_value = -0.434

